tested-target: Serine/threonine-protein kinase Chk1 (Homo sapiens, UniProt O14757)
Sequence (O14757 whole entry): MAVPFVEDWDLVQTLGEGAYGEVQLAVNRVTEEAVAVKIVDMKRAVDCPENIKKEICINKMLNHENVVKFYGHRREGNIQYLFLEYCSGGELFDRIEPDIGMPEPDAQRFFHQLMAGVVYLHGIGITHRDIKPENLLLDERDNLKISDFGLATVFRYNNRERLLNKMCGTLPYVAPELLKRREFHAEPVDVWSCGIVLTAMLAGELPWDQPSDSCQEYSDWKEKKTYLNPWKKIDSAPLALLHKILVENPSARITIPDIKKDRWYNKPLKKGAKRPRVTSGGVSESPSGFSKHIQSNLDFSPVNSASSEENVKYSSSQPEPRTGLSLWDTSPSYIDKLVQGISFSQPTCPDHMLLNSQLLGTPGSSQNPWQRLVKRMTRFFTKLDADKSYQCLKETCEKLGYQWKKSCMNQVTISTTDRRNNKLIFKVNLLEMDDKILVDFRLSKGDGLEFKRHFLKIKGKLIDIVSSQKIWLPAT
A collection of compounds and their measured IC50
I only need the number, in µM, no unit after it.

compound | IC50 / µM
N#Cc1ccc2c(c1)NC(=O)C2c1ncnc2cc(OCCCN3CCOCC3)ccc12 (configuration not stated) | 4

Now turn to the next compound.
Problem: Look up IC50 for this compound: "COc1ccc(Nc2nc(Nc3ccc(C(=O)O)cc3)ncc2Br)cc1"
Result: 0.45

This collection of values is drawn from ChEMBL document CHEMBL1137086.
